- measured-target: T1, ESO157 homolog 3 peptide (…)/HLA-A*02:01 on T2 cells (human)
- T1 construct: also called ESO157 H3
- test-method-notes: FACS, phage on T2 cells, 50 ug/ml peptide;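 note: binding of phage clones to peptide/MHC complexes detected by flow cytometry after staining with an anti-M13 antibody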
Consider the following binders; for each one, report its MFI.
Numbers only.

Record MFI for all entries; do not skip any.
1. phage clone 35-19, affinity maturation variant of clone #35 (scFv, V domains shown, also called variant 35-19) VH: QEQLVQSGAEVKKPGSSVKVSCKASGDTFSSYYISWVRQAPGQGLEWMGRIIPILGIANYAQKYQGRVTLSADKSTSTSYMELNSLRSEDTAVYYCARDWSYSIDYWGQGTLVTVSS VL: QSVVTQPPSVSAAPGQKVTISCSGSISNIGNNYVSWYQQLPGTAPKLLIYDNNMRPSGIPDRFSGSKSGTSATLGITGLQTGDEADYYCGTWDSSLSAWVFGGGTKLTVLG
2. phage clone 35-16, affinity maturation variant of clone #35 (scFv, V domains shown) VH: QVQLVQSGAEVKKPGSSVKVSCKASEDTFSSYYISWVRQAPGQGLEWMGRIIPTLGIANYAQKYQGRVTLSADKSTSTSYMELNSLRSEDTAVYYCARDWSYSIDYWGQGTLVTVSS VL: QSVVTQPPSVSAAPGQKVTISCSGSSSNIGNNYVSWYQQLPGTAPKLLIYDNNKRPSGIPGRFSGSKSGTSATLGITGLQTGDEADYYCGTWDSSLSAWVFGGGTKLTVLG
3. phage clone 35-14, affinity maturation variant of clone #35 (scFv, V domains shown) VH: QVQLVQSGAEVKKPGSSVKVSCKASGDTFSSYYISWVRQAPGQGLEWMGRIIPILGIANYAQKYQGRVTLSADKSTSTSYMELNSLRSEDTAVYYCAREWSYSIDYWGQGTLVTVSS VL: QSVVTQPPSVSAAPGQKVTISCSGSSSNIGNNYVSWYQQLPGTAPELLIYDNNKRPSGIPDRFSGSKSGTSATLGITGLQTGDEADYYCGTWDSSLSAWVFGGGTKLTVL
4. phage clone 35-12, affinity maturation variant of clone #35 (scFv, V domains shown) VH: QVPLVQSGAEVKKPGSSVRVSCKASGDTFSNYSISWVRQAPGQGLEWMGRIIPILGIANYAQKYQGRVTLSADKSTSTSYMELNSLRSEDTAVYYCARDWSYSIDYWGQGTLVTVSS VL: QSVVTQPPSVSAAPGQKVTISCSGSSSNIGNNYVSWYQQLPGTAPKLLIYDNNKRPSGIPDRFSGSKSGTSTTLGITGLQTGDEADYYCGTWDSSLSAWVFGGGTKLTVLG
5. phage clone 35-20, affinity maturation variant of clone #35 (scFv, V domains shown) VH: QVHLVQSGAEVKKPGSSVKVSCKASGDTFSSYYISWVRQAPGQGLEWMGRIIPILGIANYAQKYQGRVTLSADKSTSTSYMELNSLRSEDTAVYYCARDWSYSIDYWGQGTLVTVSS VL: QSVVTQPPSVSAAPGQKVTISCSGSSSNIGNNYVSWYQQLPGTAPKLLIYDNNKRPSGIPDRFSGSKSGTSATLGITGLQTGDEADYYCGTWDSSLSAWVFGGGTKLTVL

1. 21.7
2. 18.7
3. 20
4. 18.6
5. 20.8

Record MFI for all entries; do not skip any.
1. phage clone 35-15, affinity maturation variant of clone #35 (scFv, V domains shown) VH: QVQLVQSGAEVKKPGSSVKVSCKASGDTFSSYYISWVRQAPGQGLEWMGRIIPILGIANYAQKYQGRVTLSADKSTSTSYMELNSLSSEDTAVYYCALDWSYSIDYWGQGTLVTVSS VL: QSVVTQPPSVSAAPGQKVTISCSGSSSNIGNNYVSWYQQLPGTAPKLLIYDNNKRPSGIPDRFSASKSGTSATLGITGLQTRDEADYYCGTWDSSLSAWVFGGGTKLTVLG
2. phage clone 35-3, affinity maturation variant of clone #35 (scFv, V domains shown) VH: QVQLVQSGAEVKKPGSSVKVSCKASGDTFSSYYISWVRQAPGQGLEWMGRIIPILGIANYAQKYQGRVTLSADKSTSTSYMELNSLRSEDTAVYYCAREWSYSIDYWGQGTLVTVSS VL: QSVVTQPPSVSAAPGQKVTISCSGSSSNIGNNYVSWYQQLPGTAPKLLIYDNNKRPSGIPDRFSGSKSGTSATLGITGLRTGDEADYYCGTWDSSLSAWVFGGGTKLTVLG

[35.4, 18.9]
